B1: DVL3 (parent)
chain: YNPHPGFPELGYSYGGGSASSQHS

Variants of: B1
Test: protein stability index of a GFP-peptide fusion (GPS, HEK-293T) (PSI 1-6); higher = more stable;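 also: lentivirally expressed fusions sorted by FACS into six bins by GFP to DsRed ratio, PSI derived from sequencing read proportions per bin multiplied by bin number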
Settings: c terminus: a fixed tail appended
Param threshold (3) applies to protein stability index; output Satisfied when value >= threshold, Not satisfied when value < threshold.

Study these solved cases before continuing.
S20F = Not satisfied
Y1T = Satisfied
P5M = Not satisfied
G11I = Not satisfied
S18R = Not satisfied
G16A = Satisfied
S21Q = Not satisfied
H4D = Satisfied
S21H = Not satisfied
P5L = Not satisfied

Query: Please tell me: is the variant S18T at or over 3 in terms of protein stability index?
Result: Not satisfied

Query: Please tell me: is the variant Q22G at or over 3 in terms of protein stability index?
Result: Not satisfied

Query: Please tell me: is the variant P5Q at or over 3 in terms of protein stability index?
Result: Satisfied

Query: Please tell me: is the variant Y1M at or over 3 in terms of protein stability index?
Result: Satisfied

Query: Please tell me: is the variant Y14G at or over 3 in terms of protein stability index?
Result: Satisfied

Query: Please tell me: is the variant G15D at or over 3 in terms of protein stability index?
Result: Satisfied

Query: Please tell me: is the variant Y14S at or over 3 in terms of protein stability index?
Result: Satisfied

Query: Please tell me: is the variant P8I at or over 3 in terms of protein stability index?
Result: Not satisfied

Query: Please tell me: is the variant Q22A at or over 3 in terms of protein stability index?
Result: Not satisfied

Query: Please tell me: is the variant A19H at or over 3 in terms of protein stability index?
Result: Not satisfied

Query: Please tell me: is the variant G16W at or over 3 in terms of protein stability index?
Result: Not satisfied

Query: Please tell me: is the variant Q22L at or over 3 in terms of protein stability index?
Result: Not satisfied
